assayComment: Apparent permeability from basolateral to apical side of human Caco2 cells
Format: ADME, cell-based
conditionContext: Caco-2
metric: Papp B→A (×10⁻⁶ cm/s)

> print(dat)
                               samplesmiles  recordednumber
1  O=S(=O)(Nc1cccc(CO)c1)c1ccc(-c2ccc(Cl)cc2Cl)cc1             5.5

* * *

assayComment: Apparent permeability from apical to basolateral side of human Caco2 cells
Type: ADME, cell-based
conditionContext: Caco-2
metric: Papp A→B

> print(dat)
                               samplesmiles    metric   result
1  O=S(=O)(Nc1cccc(CO)c1)c1ccc(-c2ccc(Cl)cc2Cl)cc1  Papp A→B  15 nm/s

* * *

Reported solubility thermodynamic at 24 h values for the following compounds.
assayComment: Thermodynamic aqueous solubility of the compound in fasted state simulated intestinal fluid after 24 hrs by HPLC analysis
Assay type: physicochemical
conditionContext: read-out: Therm_solubility
metric: solubility thermodynamic at 24 h

> print(dat)
                                samplesmiles    result
 1  O=S(=O)(Nc1cccc(CO)c1)c1ccc(-c2ccc(Br)cc2)cc1  22 µg/mL
 2  O=S(=O)(Nc1cccc(CO)c1)c1ccc(-c2ccc(F)cc2)cc1Cl  25 µg/mL
 3  O=S(=O)(Nc1cccc(CO)c1)c1ccc(-c2ccc(Cl)cc2F)cc1  73 µg/mL
 4  O=S(=O)(Nc1ccc(-c2ccc(Cl)cc2Cl)cc1)c1cccc(CO)c1  40 µg/mL
 5  O=S(=O)(Nc1cccc(CO)c1)c1ccc(-c2ccccc2)cc1  11 µg/mL
 6  Cc1ccc(-c2ccc(S(=O)(=O)Nc3cccc(CO)c3)cc2)cc1  21 µg/mL
 7  O=S(=O)(Nc1cccc(CO)c1O)c1ccc(-c2ccc(Br)cc2)cc1  19 µg/mL
 8  O=S(=O)(Nc1cccc(CO)c1)c1ccc(-c2ccccc2F)cc1  57 µg/mL
 9  O=S(=O)(Nc1cc(CO)ccc1O)c1ccc(-c2ccc(F)cc2F)cc1  12 µg/mL
10  O=S(=O)(Nc1cccc(CO)c1)c1ccc(-c2ccc(F)cc2F)cc1  50 µg/mL
11  Cc1c(CO)cccc1NS(=O)(=O)c1ccc(-c2ccc(F)cc2)cc1  24 µg/mL
12  Cc1ccc(CO)cc1NS(=O)(=O)c1ccc(-c2ccc(Br)cc2)cc1  47 µg/mL
13  Cc1c(CO)cccc1NS(=O)(=O)c1ccc(-c2ccc(Br)cc2)cc1  12 µg/mL
14  O=S(=O)(Nc1cccc(CO)c1)c1ccc(-c2ccc(Cl)cc2Cl)cc1  40 µg/mL
15  O=S(=O)(Nc1cccc(CO)c1Cl)c1ccc(-c2ccc(Br)cc2)cc1  14 µg/mL
16  Cc1c(CO)cccc1NS(=O)(=O)c1ccc(-c2ccc(F)cc2F)cc1  43 µg/mL
17  O=S(=O)(Nc1cc(CO)ccc1O)c1ccc(-c2ccc(Br)cc2)cc1  12 µg/mL
18  O=S(=O)(Nc1ccc(CO)c(CO)c1)c1ccc(-c2ccc(F)cc2F)cc1  32 µg/mL
19  O=S(=O)(Nc1ccc(O)c(CO)c1)c1ccc(-c2ccc(Br)cc2)cc1   4 µg/mL
20  O=S(=O)(Nc1cc(CO)ccc1Cl)c1ccc(-c2ccc(Br)cc2)cc1  11 µg/mL

* * *

assayComment: Tmax in rat at […], po
Assay type: ADME, organism-based
Design: dose 2.5 mg/kg, route oral
conditionContext: in vivo
metric: Tmax (min)

> print(dat)
                               samplesmiles  recordednumber
1  O=S(=O)(Nc1cccc(CO)c1)c1ccc(-c2ccc(Cl)cc2Cl)cc1              50

* * *

assayComment: Oral bioavailability in rat at […]
Assay type: ADME, organism-based
conditionContext: in vivo
metric: bioavailability (%)

> print(dat)
                               samplesmiles           metric  recordednumber
1  O=S(=O)(Nc1cccc(CO)c1)c1ccc(-c2ccc(Cl)cc2Cl)cc1  bioavailability               8
